Measured IC50, listed per entry.
target: Syk (356-635 amino acids) catalytic domain (Homo sapiens (Human))
experiment: Inhibition of enzymatic Syk kinase activity (radiometric)
Format: biochemical
run.conditions: read-out: IC50 Syk

- structure.notation: "COc1cccc(Nc2nc(N3CCC(CC#N)CC3)nc3cn[nH]c(=O)c23)c1"
  IC50: "> 0.1 µM"
- structure.notation: "CC(C)(O)C(=O)N1CCN(Cc2ccc(Nc3nc(-c4ccccc4)nc4cn[nH]c(=O)c34)cc2)CC1"
  IC50: "< 0.05 µM"
- structure.notation: "CCN1CCN(c2ccc(Nc3nc(N4CCCCCC4)nc4cn[nH]c(=O)c34)cc2)CC1=O"
  IC50: "< 0.01 µM"

Please state recorded IC50 (tested on Syk (356-635 amino acids) catalytic domain (Homo sapiens (Human))) of O=c1[nH]ncc2nc(N3CCCCCC3)nc(Nc3ccc4c(c3)OCO4)c12
> 0.1 µM
